Each recorded value in this set is attributed to ChEMBL document CHEMBL1201862.

We begin with a simple list: items and their reported IC50.
biological target: DNA dC->dU-editing enzyme APOBEC-3G (Homo sapiens, UniProt Q9HC16); assay: Dose Response confirmation of small molecule APOBEC3G DNA Deaminase Inhibitors via a fluorescence-based single-stranded DNA deaminase assay. [Related pubchem assays (depositor defined):AID493012, AID493028]; assay type: functional
Sequence (Q9HC16 whole entry): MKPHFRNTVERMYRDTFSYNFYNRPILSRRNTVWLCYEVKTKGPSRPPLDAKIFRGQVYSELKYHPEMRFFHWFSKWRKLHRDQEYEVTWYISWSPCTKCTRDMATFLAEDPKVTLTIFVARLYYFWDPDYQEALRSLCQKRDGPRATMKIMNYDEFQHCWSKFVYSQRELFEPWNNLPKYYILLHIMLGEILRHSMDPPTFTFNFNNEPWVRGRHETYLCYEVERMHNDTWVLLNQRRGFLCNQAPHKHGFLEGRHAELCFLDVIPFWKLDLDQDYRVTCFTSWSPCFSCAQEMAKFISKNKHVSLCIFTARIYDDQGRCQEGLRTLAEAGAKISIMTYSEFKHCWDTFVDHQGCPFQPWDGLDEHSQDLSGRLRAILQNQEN
Calls of active or inactive are those of the source. No stated cut-off is given here; in the data, actives have a measured IC50 and inactives only a lower limit.
metric: IC50

smiles_notation=CC(/C=N/n1c(S)nnc1-c1ccncc1)=C\c1ccco1 metric=IC50 result="2.71 µM (active)"
smiles_notation=CC(=O)NC(=S)NNC(=O)C(c1ccccc1)c1ccccc1 metric=IC50 result="35.1 µM (active)"
smiles_notation=Sc1nnc(-c2ccncc2)n1/N=C/C=C/c1ccco1 metric=IC50 result="2.54 µM (active)"
smiles_notation=COc1ccc(/C=N/n2c(S)nnc2-c2cc(C)[nH]n2)cc1 metric=IC50 result="3.83 µM (active)"
smiles_notation=COc1ccc(-c2n[nH]c(=S)[nH]2)cc1OC metric=IC50 result="3.45 µM (active)"
